Values of IC50 reported for LRRK2 wild type enzyme (Homo sapiens, UniProt Q5S007) appear below.
Give just the numeric value; pM need not be written.

Worked cases, answers included:
C[C@@H]1C[C@H](n2c(CC3CN(C(=O)c4cnn(C)c4)C3)nc3cnc4ccc(C#N)cc4c32)CCO1 = 4290
COc1ccc2ncc3nc(CC(=O)NC4CC4)n([C@@H]4CCO[C@H](C)C4)c3c2c1 = 2820
C[C@@H]1C[C@H](n2c(CNc3ncccn3)nc3cnc4ccc(C#N)cc4c32)CCO1 = 3500
Cc1ncnc(C)c1NC(=O)Cc1nc2cnc3ccc(C#N)cc3c2n1[C@@H]1CCO[C@H](C)C1 = 395
C[C@@H]1C[C@H](n2c(CC(=O)N[C@H]3CCOC3)nc3cnc4ccc(Cl)cc4c32)CCO1 = 386

For reference, reported IC50 for `Cc1c(NC(=O)Cc2nc3cnc4ccc(C#N)cc4c3n2[C@@H]2CCO[C@H](C)C2)cnn1C` stands at 405

For reference, reported IC50 for `C[C@@H]1C[C@H](n2c([C@H]3CC(=O)N(c4cnn(C)c4)C3)nc3cnc4ccc(C#N)cc4c32)CCO1` stands at 141000

For reference, reported IC50 for `Cc1cccc(CNC(=O)Cc2nc3cnc4ccc(C#N)cc4c3n2[C@@H]2CCO[C@H](C)C2)n1` stands at 318

For reference, reported IC50 for `C[C@@H]1C[C@H](n2c([C@@H]3CC(=O)N(c4cnn(C)c4)C3)nc3cnc4ccc(C#N)cc4c32)CCO1` stands at 921

For reference, reported IC50 for `C[C@@H]1C[C@H](n2c([C@H]3CNC(=O)C3)nc3cnc4ccc(C#N)cc4c32)CCO1` stands at 1860

For reference, reported IC50 for `C[C@@H]1C[C@H](n2c(CNC(=O)c3cnn(C)c3)nc3cnc4ccc(C#N)cc4c32)CCO1` stands at 1830

For reference, reported IC50 for `C[C@@H]1C[C@H](n2c([C@@H]3CN(CC4CC4)S(=O)(=O)C3)nc3cnc4ccc(C#N)cc4c32)CCO1` stands at 2450

For reference, reported IC50 for `C[C@@H]1C[C@H](n2c([C@@H]3CCC(=O)N3)nc3cnc4ccc(C#N)cc4c32)CCO1` stands at 5490

For reference, reported IC50 for `C[C@@H]1C[C@H](n2c(CC(=O)Nc3ccnn3C)nc3cnc4ccc(C#N)cc4c32)CCO1` stands at 319

For reference, reported IC50 for `COc1ncccc1NC(=O)Cc1nc2cnc3ccc(C#N)cc3c2n1[C@@H]1CCO[C@H](C)C1` stands at 499

----------
Values of pIC50 reported for LRRK2 wild type enzyme (Homo sapiens, UniProt Q5S007) appear below.
Worth noting: pIC50 values are minus log10 of concentrations stated in mol/L.

Worked cases, answers included:
C[C@@H]1C[C@H](n2c(CC(=O)Nc3ccn(C4COC4)n3)nc3cnc4ccc(C#N)cc4c32)CCO1 = 9.26
C[C@@H]1C[C@H](n2c(CC(=O)Nc3cccnc3C#N)nc3cnc4ccc(C#N)cc4c32)CCO1 = 9.26
C[C@@H]1C[C@H](n2c(CC(=O)Nc3nccc(C4CC4)n3)nc3cnc4ccc(C#N)cc4c32)CCO1 = 9.44

The observed pIC50 for `C[C@@H]1C[C@H](n2c(CC(=O)Nc3cccn(CCO)c3=O)nc3cnc4ccc(C#N)cc4c32)CCO1` when tested with LRRK2 wild type enzyme (Homo sapiens, UniProt Q5S007) stands at 9.41

The observed pIC50 for `Cc1ccncc1NC(=O)Cc1nc2cnc3ccc(C#N)cc3c2n1[C@@H]1CCO[C@H](C)C1` when tested with LRRK2 wild type enzyme (Homo sapiens, UniProt Q5S007) stands at 9.33

The observed pIC50 for `C[C@@H]1C[C@H](n2c(C3CCN(C(=O)c4cnn(C)c4)CC3)nc3cnc4ccc(C#N)cc4c32)CCO1` when tested with LRRK2 wild type enzyme (Homo sapiens, UniProt Q5S007) stands at 9.07

meta.source: patent US20250270209A1
